Test system: IGROV-ET
Conditions: Ovary
test-readout: TGI IGROV-ET

See these solved cases before continuing.
                                   compound  test_readout  readout_value
0  COc1c(C)cc2c(c1O)C1NC(C2)C(O)N2C(CNC(=O)C(C)N)c3c(cc(C)c(OC)c3O)CC12 (stereo not shown) [Safracin P-19B]  TGI IGROV-ET       >19.5 µM
1  CCOC1=C(C)C(=O)C2=C(C1=O)C(CNC(=O)C(C)N)N1CC3Cc4cc(C)c(OCC)c(O)c4C(C1C2)N3C (stereo not shown) [Safracin A (OEt)]  TGI IGROV-ET         5.1 µM
2  COC1=C(C)C(=O)C2=C(C1=O)C(CNC(=O)C(C)N)N1CC3Cc4cc(C)c(OC)c(O)c4C(N3)C1C2 (stereo not shown) [Safracin E]  TGI IGROV-ET        8.25 µM
3  CCOC1=C(C)C(=O)C2=C(C1=O)C(CNC(=O)C(C)N)N1C(O)C3Cc4cc(C)c(OCC)c(O)c4C(C1C2)N3C (stereo not shown) [Safracin B (OEt)]  TGI IGROV-ET        1.19 µM
4  COc1c(C)cc2c(c1O)C1C3Cc4cc(C)c(OC)c(O)c4C(CNC(=O)C(C)N)N3C(O)C(C2)N1C (stereo not shown) [Safracin P-22B]  TGI IGROV-ET        7.04 µM

The recorded TGI IGROV-ET for COC1=C(C)C(=O)C2=C(C1=O)C(CNC(=O)C(C)N)N1C(O)C3Cc4cc(C)c(OC)c(O)c4C(N3)C1C2 (stereo not shown) [Safracin D] is 3.34 µM

The recorded TGI IGROV-ET for COc1c(C)cc2c(c1O)C1C3Cc4cc(C)c(OC)c(O)c4C(CNC(=O)C(C)N)N3CC(C2)N1C (stereo not shown) [Safracin P-22A] is >19.6 µM
